// provenance: PubChem BioAssay (NCI)

Tested on: DU-145 prostate
Assay: NCI tumour cell line growth inhibition, 48 h
Reported TGI values for the following compounds.
assay.endpoint: TGI

>>> reported_result("CCOC(=O)CC(=O)CSc1c(-c2ccccc2)c(=O)n(-c2ccccc2)c(=S)n1-c1ccccc1")
"> 100 µM"
>>> reported_result("NCCNCCCNC(=O)c1cc(-c2ccccc2)nc2ccccc12")
"> 100 µM"
>>> reported_result("O=C1NC(=O)C(c2c[nH]c3ccccc23)=C1c1ccccc1")
"> 25 µM"
>>> reported_result("CC(=O)O[C@H]1C(=O)[C@@]2(C)C(C(OC(=O)c3ccccc3)[C@]3(O)CC(OC(=O)C(O)C(NC(=O)c4ccccc4)c4cccc(Cl)c4)C(C)=C1C3(C)C)[C@]1(OC(C)=O)CO[C@@H]1C[C@@H]2O (stereo partly specified)")
"9.16 µM"
>>> reported_result("COc1cc(NC(=O)c2ccccc2Nc2ccnc(C(F)(F)F)c2)cc(OC)c1OC")
"> 100 µM"
>>> reported_result("CO/N=C(\\C)c1cccc(Nc2nc3ccccc3c3occc23)c1")
"30.8 µM"
>>> reported_result("c1c2c(cc3c1OCO3)-c1cc3ccc4c(c3c[n+]1CC2)OCO4")
"> 12.5 µM"
>>> reported_result("Cn1ccoc1=Nc1ccc(Cl)c(Cl)c1")
"> 10 µM"
>>> reported_result("CN1CCN(c2ccc(Nc3ncc4cc5n(c4n3)C3(CCCCC3)CNC5=O)nc2)CC1")
"17.2 µM"
>>> reported_result("CCCCCCC1CC(=O)C1(Cl)Cl (stereo unspecified)")
"92.8 µM"
>>> reported_result("N=c1oc2ccc(Cl)cc2cc1C(N)=O")
"> 100 µM"
>>> reported_result("CC1(C)OC(=O)C(=Cc2ccc([N+](=O)[O-])s2)C(=O)O1")
"30.9 µM"
>>> reported_result("CCCCCC(=Nc1n[nH]nc1C(N)=O)OCC")
"> 100 µM"
>>> reported_result("Oc1ccc(-c2nc3cc(F)ccc3s2)cc1")
"41.3 µM"
>>> reported_result("Nc1nnc2oc3ccc4ccccc4c3cc1-2")
"> 100 µM"
>>> reported_result("CCCc1n(Cc2ccc3ccccc3n2)cc[n+]1Cc1ccc2ccccc2n1")
"31.2 µM"
>>> reported_result("O=C(NNC(=O)c1ccccc1O)c1ccco1")
"> 100 µM"
>>> reported_result("O=C1CSC(c2ccccc2O)N1c1nc2cc3sc(N4C(=O)CSC4c4ccccc4O)nc3cc2s1 (stereo unspecified)")
"> 100 µM"
>>> reported_result("N#Cc1c(N)c(C#N)c2c(c1-c1ccc(Cl)cc1)COc1ccc(F)cc1-2")
"> 50 µM"
>>> reported_result("O=C(/C=C/c1ccccc1)OCC1=C[C@@H](O)[C@@H]2C=CO[C@@H](OC3OC(CO)C(O)C(O)C3O)[C@H]12 (stereo partly specified)")
"> 100 µM"
>>> reported_result("COC(=O)C1(C)CCCC2(C)c3cc(OC)ccc3C(=O)C(Br)C12 (stereo unspecified)")
"> 10 µM"
